TARGET_UNDER_TEST: HA (H1N1 hemagglutinin, Cat No: Z03181, GenScript)
APPLIED_CONDITIONS: read-out: SPR KD
pKd: −log10 of the molar value. Where a SMILES comes first, the peptide text is derived from it.
Everything with pKd lower than 6 is false; everything else, including exactly 6, is true.

In [3]: df
Out[3]:
                                   compound  class_label
0  CC(=O)N[C@@H](C)C(=O)N[C@@H](CC(C)C)C(=O)N[C@@H](CC(=O)O)C(=O)N[C@@H](CS)C(N)=O [Peptide 7] (Ac-ALDC-NH2)         true
1  CC(=O)N[C@@H](C)C(=O)N[C@@H](CCCCN)C(=O)N[C@@H](Cc1c[nH]cn1)C(=O)N[C@@H](CO)C(N)=O [Peptide 3] (Ac-AKHS-NH2)        false
2  CC(=O)N[C@@H](CO)C(=O)N[C@@H](C)C(=O)N[C@@H](Cc1c[nH]cn1)C(=O)N[C@@H](CO)C(N)=O [Peptide 4, Ac-SAHS-NH2] (Ac-SAHS-NH2)         true
3  CC(=O)N[C@@H](CO)C(=O)N[C@@H](CCCCN)C(=O)N[C@@H](Cc1c[nH]cn1)C(=O)N[C@@H](C)C(N)=O [Peptide 6] (Ac-SKHA-NH2)        false
4  CC(=O)N[C@@H](CO)C(=O)N[C@@H](C)C(=O)N[C@@H](CC(=O)O)C(=O)N[C@@H](CS)C(N)=O [Peptide 8] (Ac-SADC-NH2)        false
5  CC(=O)N[C@@H](CO)C(=O)N[C@@H](CC(C)C)C(=O)N[C@@H](C)C(=O)N[C@@H](CS)C(N)=O [Peptide 9] (Ac-SLAC-NH2)        false
6  CC(=O)N[C@@H](CO)C(=O)N[C@@H](CC(C)C)C(=O)N[C@@H](CC(=O)O)C(=O)N[C@@H](C)C(N)=O [Peptide 10] (Ac-SLDA-NH2)         true

###

ASSAY_SUMMARY: Cytotoxicity assay
Type: cell-based, canine
APPLIED_CONDITIONS: dog, MDCK cells
Where a SMILES comes first, the peptide text is derived from it.
// values below are reported CC50 at 24 h

COMPOUND	CC50 at 24 h
CC(=O)N[C@@H](CO)C(=O)N[C@@H](C)C(=O)N[C@@H](Cc1c[nH]cn1)C(=O)N[C@@H](CO)C(N)=O [Peptide 4, Ac-SAHS-NH2] (Ac-SAHS-NH2)	> 25 µM
CC(=O)N[C@@H](CO)C(=O)N[C@@H](CCCCN)C(=O)N[C@@H](Cc1c[nH]cn1)C(=O)N[C@@H](CO)C(N)=O [Peptide 1, Ac-SKHS-NH2] (Ac-SKHS-NH2)	> 25 µM

###

// values below are reported log10 Kd
TARGET_UNDER_TEST: HA (H1N1 hemagglutinin, Cat No.: Z03181, GenScript)
APPLIED_CONDITIONS: read-out: MST KD
Where a SMILES comes first, the peptide text is derived from it.
MEASURED_METRIC: log10 Kd (log10 of the value in µM)

>>> df
                                   molecule  experimental_result
0  CC(=O)N[C@@H](C)C(=O)N[C@@H](CC(C)C)C(=O)N[C@@H](CC(=O)O)C(=O)N[C@@H](CS)C(N)=O [Peptide 7] (Ac-ALDC-NH2)                 1.33
1  CC(=O)N[C@@H](CO)C(=O)N[C@@H](CC(C)C)C(=O)N[C@@H](CC(=O)O)C(=O)N[C@@H](C)C(N)=O [Peptide 10] (Ac-SLDA-NH2)                 0.43
2  CC(=O)N[C@@H](CO)C(=O)N[C@@H](C)C(=O)N[C@@H](CC(=O)O)C(=O)N[C@@H](CS)C(N)=O [Peptide 8] (Ac-SADC-NH2)                 0.80
3  CC(=O)N[C@@H](CO)C(=O)N[C@@H](CCCCN)C(=O)N[C@@H](C)C(=O)N[C@@H](CO)C(N)=O [Peptide 5] (Ac-SKAS-NH2)                 0.85
4  CC(=O)N[C@@H](CO)C(=O)N[C@@H](CC(C)C)C(=O)N[C@@H](C)C(=O)N[C@@H](CS)C(N)=O [Peptide 9] (Ac-SLAC-NH2)                -2.24
5  CC(=O)N[C@@H](CO)C(=O)N[C@@H](CCCCN)C(=O)N[C@@H](Cc1c[nH]cn1)C(=O)N[C@@H](C)C(N)=O [Peptide 6] (Ac-SKHA-NH2)                 1.06
6  CC(=O)N[C@@H](C)C(=O)N[C@@H](CCCCN)C(=O)N[C@@H](Cc1c[nH]cn1)C(=O)N[C@@H](CO)C(N)=O [Peptide 3] (Ac-AKHS-NH2)                 0.49
